meta.source: ChEMBL document CHEMBL1154291

- assay_summary: Half life in rat
- Assay type: ADME, organism-based
- measurement_parameters: in vivo
quantity_kind: half-life (h)
Quick reminder: number only, in h, skip the unit.

Just so you know, measured half-life for C[C@@H]1[C@H](c2ccccc2)[C@]1(NS(=O)(=O)c1ccc(-n2cc(Cl)cn2)s1)C(=O)O (racemic) came out at 4.5

====

IC50, A disintegrin and metalloproteinase with thrombospondin motifs 5 (Homo sapiens): measured values
Use nM as the unit, but write only the number.

Per the reported A disintegrin and metalloproteinase with thrombospondin motifs 5 (Homo sapiens) data, O=C(O)[C@]1(NS(=O)(=O)c2ccc(-n3cc(Cl)cn3)s2)C[C@@H]1c1ccccc1 has IC50 of 80

====

- assay_summary: Oral bioavailability in rat
- Format: ADME, organism-based
- measurement_parameters: in vivo
quantity_kind: bioavailability (%)
Reply with just the number (in %).

Per the record, C[C@@H]1[C@H](c2ccccc2)[C@]1(NS(=O)(=O)c1ccc(-n2cc(Cl)cn2)s1)C(=O)O (racemic) has bioavailability of 81

====

- tested_system: A disintegrin and metalloproteinase with thrombospondin motifs 5 (Homo sapiens, UniProt Q9UNA0)
- Sequence (Q9UNA0 whole entry): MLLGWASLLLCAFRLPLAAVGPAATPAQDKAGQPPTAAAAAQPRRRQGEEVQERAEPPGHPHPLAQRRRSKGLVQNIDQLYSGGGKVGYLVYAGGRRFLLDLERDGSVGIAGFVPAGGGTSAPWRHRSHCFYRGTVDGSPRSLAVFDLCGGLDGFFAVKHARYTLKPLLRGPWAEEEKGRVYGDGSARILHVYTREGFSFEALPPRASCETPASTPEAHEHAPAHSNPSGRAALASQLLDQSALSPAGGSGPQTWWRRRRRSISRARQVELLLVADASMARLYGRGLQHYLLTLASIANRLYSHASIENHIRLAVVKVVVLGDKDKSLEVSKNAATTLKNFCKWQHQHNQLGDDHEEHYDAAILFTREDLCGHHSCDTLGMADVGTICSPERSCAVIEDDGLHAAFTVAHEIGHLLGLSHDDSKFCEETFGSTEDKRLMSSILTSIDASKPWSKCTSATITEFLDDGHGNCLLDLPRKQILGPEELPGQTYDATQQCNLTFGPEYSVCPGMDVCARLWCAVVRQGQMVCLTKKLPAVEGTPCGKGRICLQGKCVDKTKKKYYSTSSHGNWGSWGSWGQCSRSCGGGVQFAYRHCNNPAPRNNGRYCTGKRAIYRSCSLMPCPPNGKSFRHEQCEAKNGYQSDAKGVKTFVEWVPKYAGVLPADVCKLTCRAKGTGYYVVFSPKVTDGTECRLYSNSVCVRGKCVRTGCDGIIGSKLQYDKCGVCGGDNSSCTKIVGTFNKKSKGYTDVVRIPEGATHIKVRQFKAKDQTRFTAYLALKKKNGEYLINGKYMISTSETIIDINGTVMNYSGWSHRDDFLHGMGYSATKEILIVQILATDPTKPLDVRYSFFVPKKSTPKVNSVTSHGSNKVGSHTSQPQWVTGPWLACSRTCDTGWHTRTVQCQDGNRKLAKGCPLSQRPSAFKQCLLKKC
Reported IC50 values for the following molecules.
Quote the value and follow it with the unit of measurement.

// below: answered molecules
>  <molecule>
C[C@]1(c2ccccc2)C[C@@]1(NS(=O)(=O)c1ccc(-n2cc(Cl)cn2)s1)C(=O)O

>  <IC50>
32 nM

$$$$
>  <molecule>
O=C(O)[C@]1(NS(=O)(=O)c2ccc(-c3cccc(Cl)c3)s2)C[C@@H]1c1ccccc1

>  <IC50>
94 nM

$$$$

// IC50 lookup, molecule = C[C@@H]1[C@H](c2ccccc2)[C@]1(NS(=O)(=O)c1ccc(-n2cc(Cl)cn2)s1)C(=O)O (racemic) , result: 7.4 nM

The molecule C[C@]1(c2ccccc2)C[C@@]1(NS(=O)(=O)c1ccc(-c2ccc(Cl)cc2)s1)C(=O)O showed IC50 equal to 10 nM

====

- tested_system: A disintegrin and metalloproteinase with thrombospondin motifs 5 (Homo sapiens)
Here the recorded IC50 is given for each entry.
Just the number please, in µM, no unit attached.

Take a look at these entries with their results.
>  <molecule>
CC(C)[C@H]1C[C@@]1(NS(=O)(=O)c1ccc(-n2cc(Cl)cn2)s1)C(=O)O (racemic)

>  <IC50 [µM]>
0.77

$$$$
>  <molecule>
O=C(O)[C@]1(NS(=O)(=O)c2ccc(-n3cc(Cl)cn3)s2)C[C@@H]1C1CCCCC1 (racemic)

>  <IC50 [µM]>
0.36

$$$$

Please turn your attention to the following entry.
The observed IC50 for C[C@@H]1[C@H](c2ccccc2)[C@]1(NS(=O)(=O)c1ccc(-c2ccc(Cl)cc2)s1)C(=O)O when tested with A disintegrin and metalloproteinase with thrombospondin motifs 5 (Homo sapiens) stands at 0.021

====

- tested_system: A disintegrin and metalloproteinase with thrombospondin motifs 5 (Homo sapiens)
- Sequence (Q9UNA0 whole entry): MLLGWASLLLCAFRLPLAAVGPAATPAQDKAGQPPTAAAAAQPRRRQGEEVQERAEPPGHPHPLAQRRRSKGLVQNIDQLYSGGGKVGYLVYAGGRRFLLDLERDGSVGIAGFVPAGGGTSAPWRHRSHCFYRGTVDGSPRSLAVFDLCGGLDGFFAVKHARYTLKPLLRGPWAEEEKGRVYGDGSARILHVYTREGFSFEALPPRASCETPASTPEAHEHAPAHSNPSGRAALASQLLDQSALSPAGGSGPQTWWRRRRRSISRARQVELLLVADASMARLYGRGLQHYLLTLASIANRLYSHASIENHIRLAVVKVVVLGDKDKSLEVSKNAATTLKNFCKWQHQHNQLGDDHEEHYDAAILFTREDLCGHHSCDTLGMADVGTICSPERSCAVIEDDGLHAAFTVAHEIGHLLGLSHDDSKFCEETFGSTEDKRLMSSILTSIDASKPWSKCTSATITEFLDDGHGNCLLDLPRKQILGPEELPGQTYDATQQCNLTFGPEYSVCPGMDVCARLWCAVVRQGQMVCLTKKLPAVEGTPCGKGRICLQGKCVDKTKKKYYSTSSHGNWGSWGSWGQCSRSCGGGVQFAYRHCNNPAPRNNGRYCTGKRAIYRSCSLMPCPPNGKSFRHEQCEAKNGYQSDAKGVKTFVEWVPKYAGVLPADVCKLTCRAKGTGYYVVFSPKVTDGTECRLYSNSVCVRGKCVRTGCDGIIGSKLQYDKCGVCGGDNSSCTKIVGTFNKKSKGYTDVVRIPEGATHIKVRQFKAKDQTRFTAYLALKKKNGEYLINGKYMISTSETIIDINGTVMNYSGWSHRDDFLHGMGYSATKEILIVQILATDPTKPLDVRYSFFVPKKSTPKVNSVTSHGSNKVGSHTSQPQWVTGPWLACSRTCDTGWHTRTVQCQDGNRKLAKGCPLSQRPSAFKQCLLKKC
quantity_kind: IC50 (nM)
Write it as a number; the unit nM goes unstated.

Examples from the recorded data:
>  <compound>
C[C@H]1[C@H](c2ccccc2)[C@]1(NS(=O)(=O)c1ccc(-c2ccc(Cl)cc2)s1)C(=O)O (racemic)

>  <IC50 [nM]>
120

$$$$
>  <compound>
O=C(O)[C@]1(NS(=O)(=O)c2ccc(-c3ccc(Cl)cc3)s2)C[C@@H]1c1ccccc1

>  <IC50 [nM]>
60

$$$$
>  <compound>
O=C(O)[C@@]1(NS(=O)(=O)c2ccc(-c3ccc(Cl)cc3)cc2)C[C@H]1c1ccccc1

>  <IC50 [nM]>
210

$$$$
>  <compound>
O=C(O)[C@]1(NS(=O)(=O)c2ccc(-c3ccc(Cl)cc3)cc2)C[C@@H]1c1ccccc1

>  <IC50 [nM]>
84

$$$$
>  <compound>
O=C(O)[C@]1(NS(=O)(=O)c2ccc(-c3ccc(Cl)cn3)s2)C[C@@H]1c1ccccc1

>  <IC50 [nM]>
100

$$$$

Now turn to the next compound.
GET /value?item= C[C@@H]1[C@H](C)[C@]1(NS(=O)(=O)c1ccc(-n2cc(Cl)cn2)s1)C(=O)O &field=IC50 returns 800
